Molecular target: T1, recombinant human IGF-IR (human, UniProt P08069 31-932)
T1 construct: Bought (R&D Systems); also called insulin-like growth factor-I receptor; IGF-1R
Test: competitive ELISA: plate coated with 30 nM IGF-IR, clone bound first, then 10 nM biotinylated IGF-I as the blocked ligand, streptavidin-HRP/TMB, OD450
Protocol: MaxiSorp™ plates (Nunc International, Rochester, N.Y.) were coated with 30 nM IGF-IR in PBS at 4° C. overnight followed by blocking in OptEIA buffer (BD biosciences, San Diego, Calif.) for 3 hours at room temperature. […] The excess ligand was removed by washing with PBST and bound ligand was detected with streptavidin-HRP (Pierce, Rockford, Ill.) using TMB detection reagents (BD biosciences) according to the manufacturer's instructions
parameter: binding result

354G02 (designed binder, Optimized derivative of 218C04) VSDVPRDLEVVAATPTSLLISWAEHLQVSRYYRITYGETGGNSPVQEFTVPRGVYTATISGLKPGVDYTITVYAVTPSNIIGRHYGPISINYRTHHHHHH	binds
354F06 (designed binder, Optimized derivative of 218C04) VSDVPRDLEVVAATPTSLLISWTTNLQVSRYYRITYGETGGNSPVQEFTVPKANTTATISGLKPGVDYTITVYAVTVSKGNRSYGPISINYRTHHHHHH	binds
354F11 (designed binder, Optimized derivative of 218C04) VSDVPRDLEVVAATPTSLLISWGKHLVVQRYYRITYGETGGNSPVQEFTVPRGHYTATISGLKPGVDYTITVYAVTKMRDYRPISINYRTHHHHHH	binds
354G09 (designed binder, Optimized derivative of 218C04) VSDVPRDLEVVAATPTSLLISWPQHLRVQRYYRITYGETGGNSPVQEFTVPRGSDTATISGLKPGVDYTITVYAVTKMRDYRPISINYRTHHHHHH	binds
